B1: TRIM55 (parent)
chain: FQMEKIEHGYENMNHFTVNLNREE

- Variants of: B1
- methodNotes: protein stability index of a GFP-peptide fusion (GPS, HEK-293T) (PSI 1-6); higher = more stable;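 also: lentivirally expressed fusions sorted by FACS into six bins by GFP to DsRed ratio, PSI derived from sequencing read proportions per bin multiplied by bin number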
- settings: c terminus: a fixed tail appended
# protein stability index >= 3 gives Y, anything below gives N

Use these answered entries as a reference point.
>  <change>
E7A

>  <qualitativeLabel>
N

$$$$
>  <change>
G9Y

>  <qualitativeLabel>
N

$$$$
>  <change>
T17M

>  <qualitativeLabel>
N

$$$$
>  <change>
M13D

>  <qualitativeLabel>
Y

$$$$
>  <change>
L20Y

>  <qualitativeLabel>
N

$$$$
>  <change>
E7V

>  <qualitativeLabel>
N

$$$$

input: Would you say L20W shows protein stability index at minimum 3?
output: N

input: Would you say F16A shows protein stability index at minimum 3?
output: Y

input: Would you say M3H shows protein stability index at minimum 3?
output: Y

input: Would you say E23L shows protein stability index at minimum 3?
output: N

input: Would you say F16D shows protein stability index at minimum 3?
output: Y

input: Would you say E23Q shows protein stability index at minimum 3?
output: N

Cited source: the supplement of paper PMC10567573
